Data origin, for the record: ChEMBL document CHEMBL3603776

test-protocol: Selectivity index, ratio of IC50 for rat L6 cells to IC50 for bloodstream forms of Trypanosoma brucei rhodesiense STIB 900
Format: toxicity, cell-based
stated-conditions: read-out: Ratio IC50
Entries and their measured selectivity ratio follow.
Give the value as a plain number.

structure-notation | selectivity ratio
CC(=O)Nc1ccc(OC2=CC(=O)c3c(O)cccc3C2=O)cc1 | 0.27

query: Which selectivity ratio value belongs to COc1cccc2c1C(=O)C=C(Oc1ccc(F)cc1)C2=O ?
result: 1.99

query: What selectivity ratio value was documented for this compound, COc1cccc2c1C(=O)C=C(Oc1ccc(NC(C)=O)cc1)C2=O ?
result: 7.3

query: Please look up its selectivity ratio: COc1ccc(OC2=CC(=O)c3c(OC)cccc3C2=O)cc1
result: 2.46

query: Item COc1ccc(OC2=CC(=O)c3cccc(O)c3C2=O)cc1 has what recorded selectivity ratio?
result: 0.61

query: Any idea what selectivity ratio was measured for COc1ccc(OC2=CC(=O)c3ccccc3C2=O)cc1 ?
result: 2.51

query: I have this compound here, Cc1ccc(OC2=CC(=O)c3cc4ccccc4cc3C2=O)cc1 , and I need its recorded selectivity ratio.
result: 0.17

query: What value of measured selectivity ratio is listed for Cc1ccc(OC2=CC(=O)c3cccc(O)c3C2=O)cc1 ?
result: 1.56

query: # input compound: CC(=O)Nc1ccc(OC2=CC(=O)c3ccccc3C2=O)cc1 ; wanted: its selectivity ratio
result: 1.39

query: Requested field: selectivity ratio. Item: Cc1ccc(OC2=CC(=O)c3ccccc3C2=O)cc1
result: 1.67

query: I would be grateful if you could share the reported selectivity ratio for COc1cccc2c1C(=O)C(Oc1ccc(NC(C)=O)cc1)=CC2=O .
result: 0.16

query: Given the compound O=C1C(Oc2ccccc2)=CC(=O)c2c(O)cccc21 , what is its reported selectivity ratio?
result: 0.06

query: State the recorded selectivity ratio for this entry: O=C1C=C(Oc2ccc(F)cc2)C(=O)c2ccccc21
result: 1.11

query: I have this compound here, O=C1C=C(Oc2ccc(F)cc2)C(=O)c2cc3ccccc3cc21 , and I need its recorded selectivity ratio.
result: 0.88

query: Fill in the blank: the reported selectivity ratio of CC(=O)Nc1ccc(OC2=CC(=O)c3cc4ccccc4cc3C2=O)cc1 is ____.
result: 0.16

query: Can you look up the measured selectivity ratio of COc1cccc2c1C(=O)C(Oc1ccc(C)cc1)=CC2=O for me?
result: 0.34

query: Could you share which selectivity ratio value was measured for O=C1C=C(Oc2ccc(F)cc2)C(=O)c2c(O)cccc21 ?
result: 0.54

query: Returns the measured selectivity ratio for the input compound. Input: COc1ccc(OC2=CC(=O)c3c(O)cccc3C2=O)cc1
result: 0.73

====

test-protocol: Selectivity index, ratio of IC50 for rat L6 cells to IC50 for amastigotes of Leishmania donovani MHOM/ET/67/L82
Assay type: toxicity, cell-based
stated-conditions: read-out: Ratio IC50
measurement-name: selectivity ratio

// solved cases for selectivity ratio follow
structure-notation | measurement-name | result
COc1ccc(OC2=CC(=O)c3cccc(OC)c3C2=O)cc1 | selectivity ratio | 0.05
O=C1C=C(Oc2ccc(F)cc2)C(=O)c2cc3ccccc3cc21 | selectivity ratio | 0.5
COc1ccc(OC2=CC(=O)c3cc4ccccc4cc3C2=O)cc1 | selectivity ratio | 0.09
O=C1C=C(Oc2ccccc2)C(=O)c2c(O)cccc21 | selectivity ratio | 0.51
COc1cccc2c1C(=O)C=C(Oc1ccc(F)cc1)C2=O | selectivity ratio | 0.36

query: State the recorded selectivity ratio for this entry: COc1cccc2c1C(=O)C(Oc1ccc(F)cc1)=CC2=O
result: 0.13

query: For Cc1ccc(OC2=CC(=O)c3cccc(O)c3C2=O)cc1 , what is its reported selectivity ratio?
result: 1.34

query: For the compound shown here, O=C1C=C(Oc2ccc(F)cc2)C(=O)c2c(O)cccc21 , give the reported selectivity ratio.
result: 0.55

query: Which selectivity ratio is listed for COc1cccc2c1C(=O)C=C(Oc1ccc(C)cc1)C2=O ?
result: 0.57
